Data origin, for the record: patent US9440952B2

# testedSystem: LRRK2(G2019S mutation, GST-LRRK2(amino acids 970-2527)) (Homo sapiens, UniProt Q5S007, G2019S)
# Construct: GST-LRRK2(amino acids 970-2527); GST (N); purchased Life Technologies Corporation
# Sequence (Q5S007 970-2527 G2019S): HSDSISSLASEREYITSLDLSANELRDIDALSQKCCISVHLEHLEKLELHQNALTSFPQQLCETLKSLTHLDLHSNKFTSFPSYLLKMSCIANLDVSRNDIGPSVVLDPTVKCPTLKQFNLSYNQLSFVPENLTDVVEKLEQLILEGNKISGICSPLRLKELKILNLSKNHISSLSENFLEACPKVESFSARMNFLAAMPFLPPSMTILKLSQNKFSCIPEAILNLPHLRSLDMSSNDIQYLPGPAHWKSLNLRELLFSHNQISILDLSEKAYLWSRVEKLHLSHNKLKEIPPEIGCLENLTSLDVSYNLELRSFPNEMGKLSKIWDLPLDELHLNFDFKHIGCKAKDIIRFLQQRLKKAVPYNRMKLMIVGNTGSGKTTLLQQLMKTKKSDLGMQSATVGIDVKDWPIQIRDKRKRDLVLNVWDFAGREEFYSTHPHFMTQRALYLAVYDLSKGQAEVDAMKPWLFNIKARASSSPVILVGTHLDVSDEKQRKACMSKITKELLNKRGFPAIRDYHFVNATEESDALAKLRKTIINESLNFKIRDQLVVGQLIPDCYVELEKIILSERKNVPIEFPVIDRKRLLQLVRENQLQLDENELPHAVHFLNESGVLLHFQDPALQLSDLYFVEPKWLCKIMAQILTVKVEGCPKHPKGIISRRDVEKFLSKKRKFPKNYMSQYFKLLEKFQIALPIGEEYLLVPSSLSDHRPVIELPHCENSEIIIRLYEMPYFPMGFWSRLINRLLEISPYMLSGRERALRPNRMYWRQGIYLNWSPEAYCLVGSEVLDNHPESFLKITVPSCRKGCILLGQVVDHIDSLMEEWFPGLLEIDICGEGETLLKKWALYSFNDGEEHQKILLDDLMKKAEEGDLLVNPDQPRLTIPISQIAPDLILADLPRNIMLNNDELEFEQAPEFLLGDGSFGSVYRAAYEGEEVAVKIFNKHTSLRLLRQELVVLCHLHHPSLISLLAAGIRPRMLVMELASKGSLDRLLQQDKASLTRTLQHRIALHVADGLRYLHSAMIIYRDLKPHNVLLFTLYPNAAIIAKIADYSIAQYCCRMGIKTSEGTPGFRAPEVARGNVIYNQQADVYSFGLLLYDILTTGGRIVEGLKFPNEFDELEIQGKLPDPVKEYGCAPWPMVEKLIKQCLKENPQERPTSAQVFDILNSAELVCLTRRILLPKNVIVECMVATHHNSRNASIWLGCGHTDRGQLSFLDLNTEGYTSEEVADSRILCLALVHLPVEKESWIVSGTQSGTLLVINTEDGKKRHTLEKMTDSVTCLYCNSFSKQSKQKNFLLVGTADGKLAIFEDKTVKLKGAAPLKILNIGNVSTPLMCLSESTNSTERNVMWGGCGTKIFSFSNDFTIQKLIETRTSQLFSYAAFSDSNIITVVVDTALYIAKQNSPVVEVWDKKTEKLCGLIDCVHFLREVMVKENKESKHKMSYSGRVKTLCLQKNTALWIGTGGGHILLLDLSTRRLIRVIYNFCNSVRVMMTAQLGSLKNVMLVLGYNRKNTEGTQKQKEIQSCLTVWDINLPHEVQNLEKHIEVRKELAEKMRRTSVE
# measurementNotes: LRRK2 Km ATP LanthaScreen Assay
# Type: biochemical
# measurementContext: Km ATP LanthaScreen Assay; LRRK2 G2019S; mean IC50 values; read-out: LRRK2 IC50
Give pIC50 for every item shown.
Interpret pIC50 as the negative base-10 log of the concentration measured in mol/L.

**Q:** Which pIC50 reading was recorded for the compound OC1CCN(c2cc(-c3n[nH]c4ccc(OC(F)(F)F)cc34)ccn2)CC1 ?
**A:** 7.08

**Q:** Which pIC50 reading was recorded for the compound CC(C)Oc1ccc2[nH]nc(-c3ccnc(NC(=O)C4CCN(c5ccccn5)C4)c3)c2c1 (centres unmarked) ?
**A:** 7.11

**Q:** Which pIC50 reading was recorded for the compound O=C(CN1CCN(c2cc(-c3n[nH]c4ccccc34)ccn2)CC1)N1CCOCC1 ?
**A:** 8.21

**Q:** Which pIC50 reading was recorded for the compound FC(F)(F)CN1CCN(c2cc(-c3n[nH]c4ccc(OC(F)(F)F)cc34)ccn2)CC1 ?
**A:** 6.55

**Q:** Which pIC50 reading was recorded for the compound FC(F)(F)Oc1ccc2[nH]nc(-c3ccnc(N4CCCC4)c3)c2c1 ?
**A:** 6.88

**Q:** Which pIC50 reading was recorded for the compound CO[C@@H]1CCN(c2cc(-c3n[nH]c4ccc(OC(C)C)cc34)ccn2)C1 ?
**A:** 8.30

**Q:** Which pIC50 reading was recorded for the compound c1cc(-c2n[nH]c3ccc(OCC4CCCO4)cc23)cc(N2CCOCC2)n1 (centres unmarked) ?
**A:** 8.27

**Q:** Which pIC50 reading was recorded for the compound OC1(c2ccccn2)CCN(c2cc(-c3n[nH]c4ccccc34)ccn2)CC1 ?
**A:** 7.70

----------
# testedSystem: LRRK2(G2019S mutation, GST-LRRK2(amino acids 970-2527)) (Homo sapiens, UniProt Q5S007, G2019S)
# Construct: GST-LRRK2(amino acids 970-2527); GST (N); purchased Life Technologies Corporation
# measurementNotes: LRRK2 Km ATP LanthaScreen Assay
# Type: biochemical
# measurementContext: Km ATP LanthaScreen Assay; LRRK2 G2019S; mean IC50 values; read-out: LRRK2 IC50
Give IC50 for every item shown.
Numeric answer only, unit nM assumed.

**Q:** Which IC50 reading was recorded for the molecule c1ccc(C2CCN(c3cc(-c4n[nH]c5ccccc45)ccn3)CC2)nc1 ?
**A:** 20

**Q:** Which IC50 reading was recorded for the molecule CS(=O)(=O)C1CN(c2cc(-c3n[nH]c4ccc(O)cc34)ccn2)C1 ?
**A:** 30.8

**Q:** Which IC50 reading was recorded for the molecule CC(C)Oc1ccc2[nH]nc(-c3ccnc(NC(=O)C4CC4c4cncnc4)c3)c2c1 (stereo not drawn) ?
**A:** 30.9

**Q:** Which IC50 reading was recorded for the molecule CN(C)c1cc(-c2n[nH]c3ccccc23)ccn1 ?
**A:** 33

**Q:** Which IC50 reading was recorded for the molecule CS(=O)(=O)C1CN(c2cc(-c3n[nH]c4ccc(OC(F)(F)F)cc34)ccn2)C1 ?
**A:** 106

**Q:** Which IC50 reading was recorded for the molecule Cc1cc(C(=O)Nc2cc(-c3n[nH]c4ccc(OC(C)C)cc34)ccn2)n(C)n1 ?
**A:** 51.4

**Q:** Which IC50 reading was recorded for the molecule F[C@H]1COC[C@@H]1Nc1cc(-c2n[nH]c3ccccc23)ccn1 ?
**A:** 79

**Q:** Which IC50 reading was recorded for the molecule OCC1CN(c2cc(-c3n[nH]c4ccccc34)ccn2)CCCO1 (stereo not drawn) ?
**A:** 64

**Q:** Which IC50 reading was recorded for the molecule Cc1nonc1CC(=O)Nc1cc(-c2n[nH]c3ccc(OC(C)C)cc23)ccn1 ?
**A:** 32
